Provenance of the data: ChEMBL document CHEMBL1156162

Test: Lipophilicity, log K by RT-HPLC method
Type: physicochemical

- structure-notation: "COc1cccc(/C=C/c2nc(Cl)c3ccccc3n2)c1"
  log K: 1.183
- structure-notation: "O=c1[nH]c(/C=C/c2ccc(Br)cc2)nc2ccc([N+](=O)[O-])cc12"
  log K: 1.675
- structure-notation: "COc1ccc(/C=C/c2nc3ccccc3c(=O)[nH]2)cc1"
  log K: 1.135
- structure-notation: "COc1ccc(/C=C/c2nc(Cl)c3ccccc3n2)cc1"
  log K: 1.134
- structure-notation: "Cc1nc2ccccc2c(=O)n1C(N)=O"
  log K: 0.553
- structure-notation: "CC(=O)NC1=CC(=O)c2cnc(C)nc2C1=O"
  log K: 0.017
- structure-notation: "COc1ccccc1/C=C/c1nc(Cl)c2ccccc2n1"
  log K: 1.365
- structure-notation: "O=c1[nH]c(/C=C/c2cccc(Br)c2)nc2ccccc12"
  log K: 1.59
- structure-notation: "Clc1nc(/C=C/c2ccccc2)nc2ccccc12"
  log K: 1.109
- structure-notation: "COc1cccc(/C=C/c2nc3ccccc3c(=O)[nH]2)c1"
  log K: 1.184
- structure-notation: "O=c1[nH]c(/C=C/c2cccc(Cl)c2)nc2ccccc12"
  log K: 1.506
- structure-notation: "Oc1cccc2ccc(/C=C/c3ccc(Cl)cc3)nc12"
  log K: 1.539

----------
Test system: NIH3T3 (Mus musculus)
Experiment: Cytotoxicity against mouse NIH/3T3 cells assessed as IC50
property-label: IC50

- structure-notation: "COc1ccccc1/C=C/c1nc(Cl)c2ccccc2n1"
  tested-on: "NIH3T3 (Mus musculus)"
  test-value: "> 100 µM"

----------
Test system: SK-N-MC
Assay: Cytotoxicity against human SK-N-MC cells after 72 hrs by MTT assay
Type: functional, cell-based
property-label: log10 IC50 (log10 of the value in nM)

- structure-notation: "COc1cccc2c1C(=O)c1c(O)c3c(c(O)c1C2=O)C[C@@](O)(C(=O)CO)C[C@@H]3O[C@H]1C[C@H](N)[C@H](O)[C@H](C)O1"
  test-value: 2.08
- structure-notation: "COc1ccccc1/C=C/c1nc(Cl)c2ccccc2n1"
  test-value: 2.76
- structure-notation: "Clc1nc(/C=C/c2ccccc2)nc2ccccc12"
  test-value: 3.70
- structure-notation: "CC(=O)N(O)CCCCCNC(=O)CCC(=O)N(O)CCCCCNC(=O)CCC(=O)N(O)CCCCCN"
  test-value: 4.00
- structure-notation: "COc1ccccc1/C=C/c1nc2ccccc2c(=O)[nH]1"
  test-value: 3.46
- structure-notation: "Oc1cccc2ccc(/C=C/c3ccc(Cl)cc3)nc12"
  test-value: 2.85
- structure-notation: "COc1ccc(/C=C/c2nc(Cl)c3ccccc3n2)c(OC)c1"
  test-value: 3.24

----------
Test: Lipophilicity, log K by RT-HPLC method
Format: physicochemical
property-label: log K

- structure-notation: "O=c1[nH]c(/C=C/c2ccc(Br)cc2)nc2ccccc12"
  test-value: 1.593
- structure-notation: "Cc1nc2ccc([N+](=O)[O-])cc2c(=O)n1C(N)=O"
  test-value: 0.958
- structure-notation: "O=c1[nH]c(/C=C/c2ccccc2)nc2ccccc12"
  test-value: 1.115
- structure-notation: "O=c1[nH]c(/C=C/c2ccccc2Br)nc2ccccc12"
  test-value: 1.483
- structure-notation: "COc1ccccc1/C=C/c1nc2ccccc2c(=O)[nH]1"
  test-value: 1.151
- structure-notation: "COc1ccc(/C=C/c2nc3ccccc3c(=O)[nH]2)c(OC)c1"
  test-value: 1.198
- structure-notation: "O=c1[nH]c(/C=C/c2ccc(O)c(O)c2O)nc2ccccc12"
  test-value: 0.551
- structure-notation: "O=Cc1ccc(/C=C/c2nc3ccccc3c(=O)[nH]2)cc1"
  test-value: 1.035
- structure-notation: "COc1ccc(/C=C/c2nc(Cl)c3ccccc3n2)c(OC)c1"
  test-value: 1.195
